Here the recorded abundance fitness is given for each entry.
B1: POU domain, class 3, transcription factor 2, residues 262 to 338; numbered along this chain, P20265 (parent)
chain: EDTPTSDDLEQFAKQFKQRRIKLGFTQADVGLALGTLYGNVFSQTTICRFEALQLSFKNMCKLKPLLNKWLEEADSS

- Variants of: B1
- assay_overview: abundance fitness (aPCA) (normalised: wild type 0, dead -1); higher = more abundant; growth selection in yeast, the domain comes from the species named
- test_context: Homo sapiens
Lab note: jot down the number only; don't add units.

A28K = 0.067
F42Y = 0.056
L37P = -0.293
I21A = -0.236
L63G = -0.796

Req: Fill blank: measured abundance fitness of the variant G24E is ____.
Resp: -0.641

Req: Fill blank: measured abundance fitness of the variant A74M is ____.
Resp: -0.088

Req: Fill blank: measured abundance fitness of the variant A13V is ____.
Resp: -0.044

Req: Fill blank: measured abundance fitness of the variant A74Q is ____.
Resp: -0.046

Req: Fill blank: measured abundance fitness of the variant D29T is ____.
Resp: -0.428

These entries and their values trace back to the Human Domainome abundance scans (Beltran et al. 2025).
